- TEST DESCRIPTION: NCI Yeast Anticancer Drug Screen. Data for the mec2-1 strain (AID 157)
- CONDITION: S. cerevisiae mec2-1 strain, at 50.0 µM, active compounds read high
- Description: Growth inhibition of yeast strains with defined genetic alterations is measured as a screen for potential anti-cancer activity. Selected strains with alterations in DNA damage repair or cell cycle control were exposed to compounds and growth inhibition was measured relative to vehicle treated controls. The strain used in this assay is mec2-1
The panel holds about 79,000 compounds, 15% with a hit somewhere; the sample as a whole holds those more often.
QUANTITY KIND: growth inhibition (%)
Only the number, expressed in %, is required.

stdin: Looking for the measured growth inhibition of `O=CN1CCN(c2ccc3ccc(=O)[nH]c3n2)CC1` , can you help?
stdout: -24.2

stdin: What do we get for COC(=O)C(NC(=O)C(C)N1C(=O)CCC(NS(=O)(=O)c2ccc(C)cc2)C1=O)C(C)C (stereo unspecified) ?
stdout: 8

stdin: Similarly, `CC(=O)c1sc2c(c1OC(=O)c1ccco1)c(=O)n(-c1ccccc1)c(=S)n2-c1ccccc1` ?
stdout: 18.2

stdin: Note, next up: `CCN(CC)CCN1Cc2ccccc2C1`
stdout: 3.85

stdin: Same read-out for `Cc1cccc2sc(=S)[nH]c12` ?
stdout: 18.6

stdin: And `CC(Nc1cnccn1)Nc1cnccn1` ?
stdout: -3.55

====

- TEST DESCRIPTION: NCI Yeast Anticancer Drug Screen. Data for the mec2-1 strain (AID 157)
- CONDITION: S. cerevisiae mec2-1 strain, at 50.0 µM, active compounds read high
About 79,000 compounds went through this panel and 15% of them were active in at least one assay; those are over-represented in the sample as a whole.
So I've got a bunch of molecules here, and I need their growth inhibition values.
Quick reminder: number only, in %, skip the unit.

stdin: Name the reported growth inhibition value associated with the molecule N#CC1CNC(N)NC1N (stereo unspecified)
stdout: 4.8

stdin: Next molecule: `CNc1ccc(Oc2ccccc2)cc1[N+](=O)[O-]`
stdout: 6.4

stdin: What do we get for `Cc1ccc(C)c2c3c(sc12)CCCC3` ?
stdout: -5.4

stdin: Would you kindly repeat that for `CCCC(=O)n1[nH]c(=O)n(C(C)(C)C)c1=O` ?
stdout: -7.65

stdin: Lookup `O=C(Nc1c(O)[nH][nH]c1=O)c1ccccc1`
stdout: -0.05

stdin: // next record `O=[N+]([O-])c1ccc(N=NNc2ccc([N+](=O)[O-])cc2)cc1`
stdout: -13

====

- TEST DESCRIPTION: NCI Yeast Anticancer Drug Screen. Data for the rad50 strain (AID 155);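 note: 0% = growth of vehicle-only cultures of the same strain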
- CONDITION: S. cerevisiae rad50 strain growth inhibition; at 50.0 µM; active compounds read high
Compounds without any hit were thinned out: in the full panel of roughly 79,000, 15% have a hit.
QUANTITY KIND: growth inhibition (%)
The response must be a number in % with no trailing unit.

stdin: Entry under review: `C=C1CCN(c2ccc([N+](=O)[O-])cc2)C1=O` . Reported growth inhibition?
stdout: 0

stdin: Item: `O=C(/C=C/c1ccccc1)NC(=S)Nc1ccc(F)c([N+](=O)[O-])c1`
stdout: 7.6

stdin: Here is the next compound: `Cc1ccc(NC(=O)COc2cc(Cl)c(Cl)cc2Cl)cc1[N+](=O)[O-]`
stdout: -8.55

stdin: # iterate: `Cn1c2cc(Cl)c(Cl)cc2nc2cc3c(cc21)c(Cl)c(=O)c1cc2cc(Cl)c(Cl)cc2cc13`
stdout: 31.8

stdin: What do we get for `CO[C@H]1C[C@H]2[C@@H]3CCC4=CC(=O)C=C[C@]4(C)[C@@]3(F)[C@@H](O)C[C@]2(C)[C@@]1(O)C(=O)COC(C)=O` ?
stdout: 6.55

stdin: And then C=CCOc1cc2c(cc1C(C)c1ccc(OCC)cc1)OCO2 (configuration not stated) , what is it?
stdout: 51.6

stdin: Another compound: `O=C1CCSc2c(cnc3ccccc23)N1`
stdout: -17.1

stdin: Field entry: `COc1c(C)cc(Cc2ccc3c(c2)OCO3)cc1C`
stdout: -7.8

stdin: Field entry: `Cc1n[nH]c(=S)n1N`
stdout: -9.4

stdin: Same thing, different compound: `COc1ccc(CCNC(=O)CCC2CCN(CCc3ccc(OC)c(OC)c3)CC2)cc1OC`
stdout: 16.2

stdin: // next record `CCCS(=O)(=O)CCC(=O)c1cccs1`
stdout: -0.05

stdin: Query N#CC(NCc1ccccc1)c1ccccc1 (configuration not stated) next
stdout: 67.7

stdin: Follow-up item: `Cc1c(-c2ccc3c(c2)OCO3)sc(N)c1C#N`
stdout: 5

stdin: Request: `CCCC(=O)NC(Nc1ccc(S(=O)(=O)Nc2nc(C)cc(C)n2)cc1)(C(F)(F)F)C(F)(F)F`
stdout: -21.6

stdin: Same read-out for `CCOc1cccc(/C=N/N=C2\C(=O)Nc3c(Cl)cc(Cl)cc32)c1O` ?
stdout: 22.2

stdin: // query: CCOC(=O)C(O)(C#CC(C)C)C1CCCC1 (configuration not stated)
stdout: -15

stdin: Can you handle CCOC(=O)C1SC(=S)N(c2ccccc2)C1N (configuration not stated) next?
stdout: -3.75

Source: PubChem BioAssay (NCI)
